system: primary rat microglia; conditions: rat;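 note: share of dead cells sized under 150 µm2 at 10 µM in fibrin-stimulated microglia HTS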
Structures can show the parent of a compound that is named as a salt.
measured.property: Fibrin % cell toxicity (%)
Dear colleague, please return just the value in %, with no unit written.

Q: What Fibrin % cell toxicity value was documented for this compound, CCCC(=O)Nc1ccc(OCC(O)CNC(C)C)c(C(C)=O)c1 (stereo not drawn) ?
Result: 1

Q: What Fibrin % cell toxicity value was documented for this compound, O=C(O)CC(O)(CC(=O)O)C(=O)O ?
Result: 1

Q: What Fibrin % cell toxicity value was documented for this compound, CNC(=O)Oc1ccc2c(c1)[C@]1(C)CCN(C)[C@@H]1N2C ?
Result: 0

Q: What Fibrin % cell toxicity value was documented for this compound, CC(C)=CC1C(C(=O)OCc2cccc(Oc3ccccc3)c2)C1(C)C (stereo not drawn) ?
Result: 0

Q: What Fibrin % cell toxicity value was documented for this compound, NC(=O)c1ccccc1O [Salicylamide] ?
Result: 1

Q: What Fibrin % cell toxicity value was documented for this compound, CC(C)(C)NC[C@H](O)c1ccc(O)c(CO)c1 ?
Result: 0

Q: What Fibrin % cell toxicity value was documented for this compound, CC(O)C(=O)O (stereo not drawn) ?
Result: 1

Q: What Fibrin % cell toxicity value was documented for this compound, N=C(N)NC(=O)c1nc(Cl)c(N)nc1N [Amiloride] ?
Result: 1

Q: What Fibrin % cell toxicity value was documented for this compound, COc1cc(NS(C)(=O)=O)ccc1Nc1c2ccccc2nc2ccccc12 ?
Result: 3

Q: What Fibrin % cell toxicity value was documented for this compound, CN1[C@@H]2CC[C@H]1C[C@@H](OC(c1ccccc1)c1ccccc1)C2 ?
Result: 1

Q: What Fibrin % cell toxicity value was documented for this compound, Clc1ccc(C(c2ccccc2Cl)C(Cl)Cl)cc1 (stereo not drawn) ?
Result: 0

Q: What Fibrin % cell toxicity value was documented for this compound, O=C1C[C@@H]2OCC=C3CN4CC[C@]56c7ccccc7N1[C@H]5[C@H]2[C@H]3C[C@H]46 ?
Result: 1

Q: What Fibrin % cell toxicity value was documented for this compound, O=C(OCc1ccccc1)c1ccccc1 [Benzyl Benzoate] ?
Result: 1

Q: What Fibrin % cell toxicity value was documented for this compound, Cc1ncc(CO)c(CO)c1O ?
Result: 1

Q: What Fibrin % cell toxicity value was documented for this compound, CCN(CC)CCOc1ccc(C(=C(Cl)c2ccccc2)c2ccccc2)cc1 ?
Result: 1

Q: What Fibrin % cell toxicity value was documented for this compound, O=C(O)CCCc1ccc(N(CCCl)CCCl)cc1 ?
Result: 1

Q: What Fibrin % cell toxicity value was documented for this compound, CN(Cc1cnc2nc(N)nc(N)c2n1)c1ccc(C(=O)N[C@@H](CCC(=O)O)C(=O)O)cc1 [Methotrexate] ?
Result: 1

Q: What Fibrin % cell toxicity value was documented for this compound, CC[C@]1(O)C[C@H]2CN(CCc3c([nH]c4ccccc34)[C@@](C(=O)OC)(c3cc4c(cc3OC)N(C=O)[C@H]3[C@@](O)(C(=O)OC)[C@H](OC(C)=O)[C@]5(CC)C=CCN6CC[C@]43[C@@H]65)C2)C1 [Vincristine] ?
Result: 33

Q: What Fibrin % cell toxicity value was documented for this compound, CC(C)NCC(O)c1ccc(NS(C)(=O)=O)cc1 (stereo not drawn) ?
Result: 1

Q: What Fibrin % cell toxicity value was documented for this compound, CC[C@@H](CO)NCCN[C@@H](CC)CO ?
Result: 1

Q: What Fibrin % cell toxicity value was documented for this compound, CCOC(=O)c1ncn2c1CN(C)C(=O)c1cc(F)ccc1-2 ?
Result: 1

Q: What Fibrin % cell toxicity value was documented for this compound, CCCCC1C(=O)N(c2ccccc2)N(c2ccccc2)C1=O ?
Result: 0

Q: What Fibrin % cell toxicity value was documented for this compound, CC[C@H]1OC(=O)[C@H](C)C(=O)[C@H](C)[C@@H](O[C@@H]2O[C@H](C)C[C@H](N(C)C)[C@H]2O)[C@](C)(OC)C[C@@H](C)C(=O)[C@H](C)[C@H]2N(CCCCn3cnc(-c4cccnc4)c3)C(=O)O[C@]12C ?
Result: 1

Q: What Fibrin % cell toxicity value was documented for this compound, C=C[C@H]1C[N@@]2CC[C@H]1C[C@H]2[C@H](O)c1ccnc2ccc(OC)cc12 [Quinine Sulfate] ?
Result: 1

Q: What Fibrin % cell toxicity value was documented for this compound, CO[C@H]1C[C@@H]2CC[C@@H](C)[C@@](O)(O2)C(=O)C(=O)N2CCCC[C@H]2C(=O)O[C@H]([C@H](C)C[C@@H]2CC[C@@H](O)[C@H](OC)C2)CC(=O)[C@H](C)/C=C(\C)[C@@H](O)[C@@H](OC)C(=O)[C@H](C)C[C@H](C)/C=C/C=C/C=C/1C [Sirolimus] ?
Result: 4

Q: What Fibrin % cell toxicity value was documented for this compound, CC(=O)[C@H]1CC[C@H]2[C@@H]3CC=C4C[C@@H](OC(=O)CCC(=O)O)CC[C@]4(C)[C@H]3CC[C@]12C [Pregnenolone Succinate] ?
Result: 1

Q: What Fibrin % cell toxicity value was documented for this compound, CO/N=C(\C(=O)N[C@@H]1C(=O)N2C(C(=O)O)=C(COC(N)=O)CS[C@H]12)c1ccco1 [Cefuroxime Sodium] ?
Result: 1

Q: What Fibrin % cell toxicity value was documented for this compound, CN(C)[C@@H]1C(O)=C(C(N)=O)C(=O)[C@@]2(O)C(O)=C3C(=O)c4c(O)cccc4[C@@](C)(O)[C@H]3[C@H](O)[C@@H]12 ?
Result: 1

Q: What Fibrin % cell toxicity value was documented for this compound, Cc1c(-c2cnccn2)ssc1=S ?
Result: 1

Q: What Fibrin % cell toxicity value was documented for this compound, OCCN1CCN(CCCN2c3ccccc3Sc3ccc(C(F)(F)F)cc32)CC1 ?
Result: 1

Q: What Fibrin % cell toxicity value was documented for this compound, Nc1nc(Cl)nc2c1ncn2[C@H]1C[C@H](O)[C@@H](CO)O1 ?
Result: 1

Q: What Fibrin % cell toxicity value was documented for this compound, CCC(C)n1ncn(-c2ccc(N3CCN(c4ccc(OCC5COC(Cn6cncn6)(c6ccc(Cl)cc6Cl)O5)cc4)CC3)cc2)c1=O (stereo not drawn) ?
Result: 1

Q: What Fibrin % cell toxicity value was documented for this compound, CNCCCN1c2ccccc2CCc2ccccc21 [Desipramine hydrochloride, reference compound] ?
Result: 1
